Tested on: rabbit plasma-rich platelets (PRP)
EXPERIMENTAL PROTOCOL: Inhibition of PAF Acether-induced PA, rabbit PRP in vitro
Type: cell-based
DETAILS: Oryctolagus cuniculus, Platelet, PAF Acether 2.5 nM; average of 10 assays; read-out: IC50 doses on PAF Acether-induced rabbit PA (PRP)
OBSERVATION TYPE: log10 of IC50 (log10 of the value in µM)
# log10 transformed; quantity=IC50; unit=µM

Asked: So what's the measured log10 of IC50 for this one? CC1C(=O)OC2C(O)C34C5CC(C(C)(C)C)C36C(OC(=O)C6O)OC4(C(=O)O5)C12O (centres unmarked) [Ginkgolide B]
Given back: 0.27

Asked: So what's the measured log10 of IC50 for this one? C=CCC1=C[C@@]2(OC)C(=CC1=O)O[C@H](c1ccc(OC)c(OC)c1)[C@H]2C [Kadsurenone, kadsurenone, reference compound]
Given back: 1.00

Asked: So what's the measured log10 of IC50 for this one? C[C@@H]1C(=O)O[C@H]2C[C@@]34[C@H]5C[C@@H](C(C)(C)C)[C@]36[C@@H](OC(=O)[C@@H]6O)O[C@@]4(C(=O)O5)[C@]21O [Ginkgolide A]
Given back: 0.92

Asked: So what's the measured log10 of IC50 for this one? CC1C(=O)OC2C(O)C34C5OC(=O)C3(OC3OC(=O)C(O)C34C(C(C)(C)C)C5O)C12O (centres unmarked) [Ginkgolide C]
Given back: 1.18

Asked: So what's the measured log10 of IC50 for this one? CC1C(=O)OC2C1C13OC4OC(=O)C(O)C45C(C(C)(C)C)C(O)C(OC1=O)C35C2O (centres unmarked) [Ginkgolide M]
Given back: 2.09
